Biological target: PARD3_3, Q8TEW0
Sequence (Q8TEW0 582-685): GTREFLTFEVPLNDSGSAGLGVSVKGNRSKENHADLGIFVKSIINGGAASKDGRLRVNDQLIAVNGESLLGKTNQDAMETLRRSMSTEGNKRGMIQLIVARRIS
Assay: holdup assay
Parameters: key: below the threshold = too weak to quantify, mostly under pKd 3.1 to 4
Conditions: plain residues with an end cap or a label only (N-terminal biotin on a linker: ahx)
property: pKd

Record summary for PKMKLNETSF [SHKBP1, Q8TBC3] : reported pKd = below the threshold

Record summary for YNSFLSVTTV [PDZRN3, Q9UPQ7] : reported pKd = below the threshold

Record summary for ADENEQVSAV [RAPGEF6, Q8TEU7] : reported pKd = below the threshold

Record summary for KDECVIATEV [DLL1, O00548] : reported pKd = below the threshold

Record summary for SAPATLSSRA [PDLIM2, Q96JY6] : reported pKd = below the threshold

Now look at this one.
Record summary for SKKNELFSNL [NHERF1, O14745] : reported pKd = below the threshold

These entries and their values trace back to paper PMC9482650.
